experiment: Plasma concentration in Harlan CD1 mouse at 30 mg/kg, ip after 15 mins; format: ADME, organism-based; design: dose 30 mg/kg, route intraperitoneal
parameter.measured: concentration at 0.25 h (µM)
Write down the numeric answer in µM and omit the unit.

Form field concentration at 0.25 h, entry `O=C(Nc1cncc(Oc2cncnc2)n1)c1cc(Cl)ccn1` : 3.99

====

molecular target: Metabotropic glutamate receptor 5 (Rattus norvegicus, UniProt P31424); assay: Negative allosteric modulator activity at rat mGlu5 expressed in HEK293A cells assessed as reduction in glutamate-induced calcium mobilization
Sequence (P31424 whole entry): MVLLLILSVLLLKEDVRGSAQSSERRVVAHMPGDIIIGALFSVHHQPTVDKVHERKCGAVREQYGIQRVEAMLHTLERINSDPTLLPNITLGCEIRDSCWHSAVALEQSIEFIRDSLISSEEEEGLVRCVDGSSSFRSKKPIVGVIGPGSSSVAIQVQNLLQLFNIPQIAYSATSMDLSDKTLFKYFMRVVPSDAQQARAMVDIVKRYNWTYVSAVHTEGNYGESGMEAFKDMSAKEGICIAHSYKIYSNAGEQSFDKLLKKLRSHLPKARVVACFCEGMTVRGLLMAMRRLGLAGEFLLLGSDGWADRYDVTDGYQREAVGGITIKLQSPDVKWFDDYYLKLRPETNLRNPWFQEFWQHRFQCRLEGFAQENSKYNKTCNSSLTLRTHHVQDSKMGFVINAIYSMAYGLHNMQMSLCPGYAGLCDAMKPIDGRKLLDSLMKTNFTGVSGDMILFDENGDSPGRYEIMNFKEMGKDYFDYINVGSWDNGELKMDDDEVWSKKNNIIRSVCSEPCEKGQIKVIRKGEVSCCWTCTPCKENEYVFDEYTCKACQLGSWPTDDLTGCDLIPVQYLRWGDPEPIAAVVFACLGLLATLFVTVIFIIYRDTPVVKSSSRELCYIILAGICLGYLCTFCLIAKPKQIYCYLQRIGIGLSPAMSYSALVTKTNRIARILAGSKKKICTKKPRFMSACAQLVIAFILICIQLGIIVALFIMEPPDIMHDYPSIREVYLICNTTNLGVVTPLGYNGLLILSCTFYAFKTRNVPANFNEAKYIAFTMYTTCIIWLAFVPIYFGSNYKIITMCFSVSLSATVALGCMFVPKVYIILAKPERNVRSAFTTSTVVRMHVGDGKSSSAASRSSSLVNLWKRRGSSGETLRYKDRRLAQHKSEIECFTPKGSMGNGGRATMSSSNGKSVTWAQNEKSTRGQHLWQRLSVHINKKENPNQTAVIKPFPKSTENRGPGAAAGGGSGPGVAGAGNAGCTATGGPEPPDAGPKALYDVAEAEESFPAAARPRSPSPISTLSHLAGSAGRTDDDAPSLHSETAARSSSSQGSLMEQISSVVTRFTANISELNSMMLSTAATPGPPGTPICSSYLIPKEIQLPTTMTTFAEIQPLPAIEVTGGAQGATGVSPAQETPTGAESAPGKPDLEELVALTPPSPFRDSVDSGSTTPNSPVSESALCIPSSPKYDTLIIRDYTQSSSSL
Classify: y when IC50 is strictly less than 0.9 µM; n when IC50 is not.

| smiles.representation | qualitative.label |
| --- | --- |
| O=C(Nc1cncc(Oc2cncc(F)c2)n1)c1ccccn1 | n |
| O=C(Nc1cncc(Oc2cncc(F)c2)n1)c1cccc(Cl)c1F | n |
| O=C(Nc1cncc(Oc2cccnc2)n1)c1cccc(Cl)c1 | y |
| O=C(Nc1cncc(Oc2cncc(F)c2)n1)c1cccc(F)c1 | n |
| Cc1ccnc(C(=O)Nc2cncc(Oc3cncnc3)n2)c1 | y |
| Cc1cc(C(=O)Nc2cncc(Oc3cncc(F)c3)n2)cs1 | n |
| O=C(Nc1cncc(Oc2cncc(F)c2)n1)c1cccc(Cl)n1 | n |
| O=C(Nc1cncc(Oc2cncnc2)n1)c1cc(Br)ccn1 | y |
| O=C(Nc1cncc(Oc2cncc(F)c2)n1)c1cccs1 | n |
| O=C(Nc1cncc(Oc2cncnc2)n1)c1ccsc1 | n |

Note: attention shifts to another entry.
Enquiry: Hello, is IC50 of the following compound strictly smaller than 0.9 µM? `O=C(Nc1cncc(Oc2cncc(F)c2)n1)c1cc(Cl)cc(Cl)c1`
Return: n

====

biological target: Metabotropic glutamate receptor 5 (Rattus norvegicus); test: Negative allosteric modulator activity at rat mGlu5 expressed in HEK293A cells assessed as reduction in 100 uM glutamate-induced calcium mobilization at 30 uM; format: functional, cell-based; conditions: HEK293-A
parameter.measured: %max (%)
Write down the numeric answer in % and omit the unit.

Here is how some compounds turned out for %max.
| smiles.representation | unit.text | %max |
| --- | --- | --- |
| O=C(Nc1cncc(Oc2cncc(F)c2)n1)c1cscn1 | % | 22 |
| O=C(Nc1cncc(Oc2cncc(F)c2)n1)c1ccsc1 | % | 0.1 |
| N#Cc1cccc(C(=O)Nc2cncc(Oc3cncc(F)c3)n2)c1 | % | 1.2 |
| O=C(Nc1cncc(Oc2cncc(F)c2)n1)c1cc(Cl)ccc1F | % | 1 |
| O=C(Nc1cncc(Oc2cncc(F)c2)n1)c1ccccn1 | % | 40 |

Form field %max, entry `O=C(Nc1cncc(Oc2cncnc2)n1)c1ccsc1` : 15

Form field %max, entry `Cc1ccnc(C(=O)Nc2cncc(Oc3cncc(F)c3)n2)c1` : 1.7

Form field %max, entry `O=C(Nc1cncc(Oc2cncc(F)c2)n1)c1ccc(F)c(Cl)c1` : -2.8

Form field %max, entry `COc1cccc(C(=O)Nc2cncc(Oc3cncc(F)c3)n2)c1` : -5.6

Form field %max, entry `O=C(Nc1cncc(Oc2cncnc2)n1)c1cccc(F)c1` : 1.5

Form field %max, entry `O=C(Nc1cncc(Oc2cncnc2)n1)c1cccs1` : 20

Form field %max, entry `O=C(Nc1cncc(Oc2cncc(F)c2)n1)c1cc(F)cc(Cl)c1` : 48

Form field %max, entry `COc1cccc(C(=O)Nc2cncc(Oc3cncnc3)n2)c1` : -4.3

Form field %max, entry `O=C(Nc1cncc(Oc2cncc(F)c2)n1)c1cccc(F)c1` : -0.4

Form field %max, entry `Cc1ccnc(C(=O)Nc2cncc(Oc3cncnc3)n2)c1` : 2.1

Form field %max, entry `Cc1cc(C(=O)Nc2cncc(Oc3cncc(F)c3)n2)cs1` : 1.1

Form field %max, entry `Cc1csc(C(=O)Nc2cncc(Oc3cncc(F)c3)n2)n1` : 20

Form field %max, entry `O=C(Nc1cncc(Oc2cncc(F)c2)n1)c1cccc(Cl)c1` : 2

Form field %max, entry `O=C(Nc1cncc(Oc2cncc(F)c2)n1)c1nccs1` : 40

Form field %max, entry `Cc1cc(C)cc(C(=O)Nc2cncc(Oc3cncc(F)c3)n2)c1` : 6.6

Form field %max, entry `O=C(Nc1cncc(Oc2cncc(F)c2)n1)c1ccccc1` : -9.4

Form field %max, entry `O=C(Nc1cncc(Oc2cncnc2)n1)c1cc(Br)ccn1` : 2.3

Form field %max, entry `Cc1cccc(C(=O)Nc2cncc(Oc3cncc(F)c3)n2)c1` : 2.1

Form field %max, entry `O=C(Nc1cncc(Oc2cncnc2)n1)c1cscn1` : 35
